Test system: Rattus norvegicus
Test: Gastrointestinal toxicity in albino rat assessed as ulcerogenic effect at 30 umol/kg, po for 3 days
Format: organism-based
Conditions: in vivo, 72 h
Reported Property: Activity (%)
Write the number in % without appending the unit.

Past entries and their recorded results:
Cc1ccc(Nc2nnc(-c3cn(-c4ccc(S(=O)(=O)/N=C/N(C)C)cc4)nc3-c3ccccc3)s2)cc1 | 10
CN(C)/C=N/S(=O)(=O)c1ccc(-n2cc(/C=N\N=c3/scc(-c4ccc(Br)cc4)n3-c3ccccc3)c(-c3ccccc3)n2)cc1 | 0
CN(C)/C=N/S(=O)(=O)c1ccc(-n2cc(/C=N\N=c3/scc(-c4ccc(Br)cc4)n3-c3ccc(Cl)cc3)c(-c3ccccc3)n2)cc1 | 0
CC(=O)N(C1=NN(C(C)=O)C(c2cn(-c3ccc(S(=O)(=O)/N=C/N(C)C)cc3)nc2-c2ccccc2)S1)c1ccc(C)cc1 (stereo not drawn) | 10

GET /value?item= `Cc1ccc(N2C(=O)CS/C2=N\N=C/c2cn(-c3ccc(S(=O)(=O)/N=C/N(C)C)cc3)nc2-c2ccccc2)cc1` &field=Activity returns 20

GET /value?item= `CN(C)/C=N/S(=O)(=O)c1ccc(-n2cc(/C=N\N=C3/SCC(=O)N3c3ccccc3)c(-c3ccccc3)n2)cc1` &field=Activity returns 10

GET /value?item= `CN(C)/C=N/S(=O)(=O)c1ccc(-n2cc(-c3nnc(Nc4ccccc4)s3)c(-c3ccccc3)n2)cc1` &field=Activity returns 0

GET /value?item= `Cc1ccc(-n2c(-c3ccc(Br)cc3)cs/c2=N\N=C/c2cn(-c3ccc(S(=O)(=O)/N=C/N(C)C)cc3)nc2-c2ccccc2)cc1` &field=Activity returns 0

GET /value?item= `CN(C)/C=N/S(=O)(=O)c1ccc(-n2cc(-c3nnc(Nc4ccc(Cl)cc4)s3)c(-c3ccccc3)n2)cc1` &field=Activity returns 10

GET /value?item= `CN(C)/C=N/S(=O)(=O)c1ccc(-n2cc(/C=N\N=C3/SCC(=O)N3c3ccc(Cl)cc3)c(-c3ccccc3)n2)cc1` &field=Activity returns 10

GET /value?item= CC(=O)N(C1=NN(C(C)=O)C(c2cn(-c3ccc(S(=O)(=O)/N=C/N(C)C)cc3)nc2-c2ccccc2)S1)c1ccccc1 (stereo not drawn) &field=Activity returns 20

GET /value?item= CC(=O)N(C1=NN(C(C)=O)C(c2cn(-c3ccc(S(=O)(=O)/N=C/N(C)C)cc3)nc2-c2ccccc2)S1)c1ccc(Cl)cc1 (stereo not drawn) &field=Activity returns 10

GET /value?item= COc1ccc2c(c1)c(CC(=O)O)c(C)n2C(=O)c1ccc(Cl)cc1 [INDOMETHACIN] &field=Activity returns 100
